The values you see were collected from patent US20230049752A1.

// reported FACS signal at 200 nM per item
# target or test system: human Claudin-6 (CLDN6) (human) (UniProt P56747)
# experimental protocol: FACS, limiting dilution, UMUC4 cells
measured quantity: FACS signal at 200 nM

AB S10 (antibody, V domains shown) VH: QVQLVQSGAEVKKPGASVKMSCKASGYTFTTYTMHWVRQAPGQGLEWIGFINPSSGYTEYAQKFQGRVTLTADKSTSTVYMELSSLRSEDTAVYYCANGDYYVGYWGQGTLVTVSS VL: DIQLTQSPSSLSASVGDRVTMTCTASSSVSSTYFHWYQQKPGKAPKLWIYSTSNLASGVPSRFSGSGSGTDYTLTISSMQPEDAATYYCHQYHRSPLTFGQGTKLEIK : 22200
AB S5 (antibody, V domains shown) VH: EVQLLESGGGLVQPGGSMRLSCAASGFTFSNYWMNWVRQAPGKGLEWLAQIRLKSDNYATHYTDSVKGRFTISRDDSKRTVYLQMNSLRAEDTGIYYCSDGPPSGSWGQGTLLTVSS VL: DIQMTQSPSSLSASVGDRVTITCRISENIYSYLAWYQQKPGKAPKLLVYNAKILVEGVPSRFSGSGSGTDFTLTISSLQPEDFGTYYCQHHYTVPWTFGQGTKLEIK : 19000
AB S1 (antibody, V domains shown) VH: EVQLLESGGGLVQPGGSMRLSCAASGFTFSNYWMNWVRQAPGKGLEWIAQIRLKSDNYATHYTDSVKGRFTISRDDSKRTVYLQMNSLRAEDTGTYYCSDGPPSGSWGQGTLLTVSS VL: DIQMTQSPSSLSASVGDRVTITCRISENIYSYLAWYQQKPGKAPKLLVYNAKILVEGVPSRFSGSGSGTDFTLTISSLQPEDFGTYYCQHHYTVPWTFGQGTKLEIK : 18700
AB S11 (antibody, V domains shown) VH: QVQLVQSGAEVKKPGASVKMSCKASGYTFTTYTIHWVRQAPGQGLEWIGVINPSSGYTEYAQKFQGRVTLTADKSTSTVYMELSSLRSEDTAVYFCANGDYYVAYWGQGTLVTVSS VL: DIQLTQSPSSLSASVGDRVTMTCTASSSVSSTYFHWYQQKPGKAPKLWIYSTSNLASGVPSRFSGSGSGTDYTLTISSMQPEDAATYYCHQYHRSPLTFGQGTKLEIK : 19900
AB S12 (antibody, V domains shown) VH: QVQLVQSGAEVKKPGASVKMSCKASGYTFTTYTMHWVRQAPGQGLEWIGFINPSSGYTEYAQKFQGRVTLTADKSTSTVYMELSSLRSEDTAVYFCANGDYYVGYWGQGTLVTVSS VL: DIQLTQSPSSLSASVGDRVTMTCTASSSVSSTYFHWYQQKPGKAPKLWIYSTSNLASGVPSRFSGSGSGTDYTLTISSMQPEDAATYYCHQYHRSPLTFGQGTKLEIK : 37500
